# experimental_details: In vivo pharmacokinetic determination of compound (I), compound A and their metabolites in plasma
# Parameters: species or system New Zealand White Rabbits
# protocol_conditions: both sexes, New Zealand White, rabbit, po, 10 mg/kg, single oral 10 mg/kg of compound (I), male and female rabbit, read-out: MRT (mean residence time)
Lab note: compare MRT with 4 h, writing 1 if less and 0 if equal or more.

Please review the following examples before continuing.
> print(dat)
                                   compound  class.name
1  Cn1cc(-c2ccc3nnc(C(F)(F)c4ccc5[nH]c(=O)ccc5c4)n3n2)cn1 [Metabolite 2]           1
2  [2H]c1ccc2cc(C(F)(F)c3nnc4ccc(-c5cn[nH]c5)nn34)ccc2n1 [N-desmethyl metabolite 3]           0
3  [2H]c1ccc2cc(C(F)(F)c3nnc4ccc(-c5cnn(C)c5)nn34)ccc2n1           0
4  O=c1ccc2cc(C(F)(F)c3nnc4ccc(-c5cn[nH]c5)nn34)ccc2[nH]1 [Metabolite 1]           0

**Q:** Determine whether this compound shows MRT lower than 4 h (ties excluded): Cn1cc(-c2ccc3nnc(C(F)(F)c4ccc5ncccc5c4)n3n2)cn1 [Compound A, reference compound]
**A:** 1
